Biological target: PTGER4 (EP4) (Homo sapiens)
Construct: host or cells: HEK 293 (PathHunter, stably transfected)
Sequence (P35408 whole entry): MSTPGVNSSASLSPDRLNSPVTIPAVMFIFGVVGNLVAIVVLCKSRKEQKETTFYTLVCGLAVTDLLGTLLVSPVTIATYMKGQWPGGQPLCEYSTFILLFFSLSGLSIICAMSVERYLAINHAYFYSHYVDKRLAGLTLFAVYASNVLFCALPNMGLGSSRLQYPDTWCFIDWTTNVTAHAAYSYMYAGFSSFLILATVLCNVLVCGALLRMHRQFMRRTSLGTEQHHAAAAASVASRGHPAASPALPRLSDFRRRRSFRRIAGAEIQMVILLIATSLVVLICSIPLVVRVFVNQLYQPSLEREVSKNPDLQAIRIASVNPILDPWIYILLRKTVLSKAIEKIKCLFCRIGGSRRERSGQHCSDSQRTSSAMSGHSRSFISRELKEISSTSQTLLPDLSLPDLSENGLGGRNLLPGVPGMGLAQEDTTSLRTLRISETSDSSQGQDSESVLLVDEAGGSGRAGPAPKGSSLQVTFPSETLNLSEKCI
Assay: hEP4 b-Arrestin Assay (PathHunter HEK 293 PTGER4 b-arrestin cells, PGE2 20 nM)
Format: cell-based
Conditions: antagonistic activity, beta-arrestin assay, HEK 293 PTGER4 cells, PGE2 20 nM (EC80); read-out: hEP4 b-arr IC50
pIC50: −log10 of the molar value.
measured.parameter: pIC50

1) CCOc1cc(-c2cc(NCCc3c(OC(C)C)ccc4ccccc34)ncn2)sc1C(=O)O	7.08
2) CCOc1cc(-c2cc(NCCc3c(OC)ccc4cccnc34)ncn2)sc1C(=O)O	6.60
3) CCOc1cc(-c2cc(NCCc3ccc(OC)c4ccccc34)ncn2)sc1C(=O)O	7.77
4) CCOc1cc(-c2cc(NCCc3c(OC)ccc4ccccc34)ncn2)ccc1-c1noc(=O)[nH]1	7.47
5) CCOc1cc(-c2cc(NCCc3ccc(C)c4ccccc34)ncn2)sc1C(=O)O	8.05
6) CCOc1cc(-c2cc(NCCc3ccc(C#N)c4ccccc34)ncn2)sc1C(=O)O	7.32
7) CCOc1cc(-c2cc(NCCc3cccc4nc(C)sc34)ncn2)sc1C(=O)O	5.85
8) CCOc1cc(-c2cc(NCCc3ccc(Br)c4ccccc34)ncn2)ccc1CC(=O)O	6.94
9) COc1ccc2ccccc2c1CCNc1cc(-c2ccc(C(=O)O)c(OC(F)F)c2)ncn1	6.54
10) CCOc1cc(-c2cc(NCCc3c(OC)ccc4nc(C)ccc34)ncn2)sc1C(=O)O	6.65
11) CCOc1cc(-c2cc(NCCc3cccc4[nH]ccc34)ncn2)sc1-c1noc(=O)[nH]1	7.43
12) CCc1nc(-c2cc(NCCc3c(OC)ccc4ccccc34)ncn2)sc1-c1noc(=O)[nH]1	7.47
13) CCOc1cc(-c2cc(NCCc3ccc(Br)c4ccccc34)ncn2)ccc1C(=O)O	6.71
14) CCOc1cc(-c2cc(NCCc3ccc(Cl)c4ccccc34)ncn2)sc1C(=O)O	7.72
15) CCOc1cc(-c2cc(NCCc3c(OC)ccc4ccccc34)ncn2)ccc1OCCC(=O)O	7.12
16) CCOc1cc(-c2cc(NCCc3c(OC)ccc4ccccc34)ncn2)sc1-c1noc(=O)[nH]1	8.40
17) CCOc1cc(-c2cc(NCCc3c(OC)ccc4sccc34)ncn2)ccc1CC(=O)O	6.67
18) CCOc1cc(-c2cc(NCCc3cccc4cc[nH]c34)ncn2)sc1C(=O)O	6.51
19) CCOc1cc(-c2cc(NCCc3c(OC)ccc4ccccc34)ncn2)ccc1CC(=O)O	6.18
20) CCOc1cc(-c2cc(NCCc3c(Br)cc(F)c4ccccc34)ncn2)ccc1C(=O)O	6.05
21) CCOc1cc(-c2cc(NCCc3c(OCC)ccc4c3OCO4)ncn2)sc1C(=O)O	7.28
22) CCOc1cc(-c2cc(NCCc3c(C)ccc4ncccc34)ncn2)sc1C(=O)O	6.51
23) Cc1c(C)n(C)c2c(CCNc3cc(-c4ccc(C(=O)O)c(OC5CCC5)c4)ncn3)cccc12	5.85
24) CCOc1cc(-c2cc(NCCc3ccc(Br)c4ccn(C)c34)ncn2)ccc1CC(=O)O	6.44
25) CCOc1cc(-c2cc(NCCc3cccc4ccsc34)ncn2)sc1C(=O)O	6.50
26) CCOc1cc(-c2cc(NCCc3c(OCC)ccc4ccccc34)ncn2)sc1C(=O)O	7.28
27) COc1ccc2ccccc2c1CCNc1cc(-c2ccc(C(=O)O)c(OC3CCC3)c2)ncn1	6.74
28) CCOc1cc(-c2cc(NCCc3c(OCC)ccc4sccc34)ncn2)ccc1C(=O)O	6.25
29) CCOc1cc(-c2cc(NCCc3c(OC)ccc4ccccc34)ncn2)sc1CCC(=O)O	7.06
30) CCOc1cc(-c2cc(NCCc3ccc(OC)c4ccccc34)ncn2)sc1-c1noc(=O)[nH]1	8.40
31) CCOc1cc(-c2cc(NCCc3c(OC)ccc4c3ccn4C)ncn2)ccc1C(=O)O	6.30
32) CSc1cc(-c2cc(NCCc3c(C)ccc4c3ccn4C)ncn2)ccc1C(=O)O	6.26
33) CCOc1cc(-c2cc(NCCc3c(OC)ccc4ccccc34)ncn2)ccc1-c1nnn[nH]1	7.54
